# Test system: L1210 leukemia ip in BDF1 mice, survival T/C
# test: NCI In Vivo Anticancer Drug Screen. Data for tumor model L1210 Leukemia (intraperitoneal) in B6D2F1 (BDF1) mice
# assaySetup: endpoint: mean survival time; dose: 100.0 mg/kg/injection; schedule: Q04DX003 (ip); vehicle: saline with Tween-80; higher = longer survival
Inconclusive results and toxic doses are left out.
readout: T/C

Using the record for CCCCCCCCCCCCC/C=C/CC(CC(=O)O)C(=O)Nc1ccc(-n2c(=O)cc(C)n2C)cc1 (configuration not stated) , report its T/C.
92 % of control

What do you have for `C#CCOCCBr` ?
97 % of control

What do you have for `Cc1cc2ncn(CC(=O)NN)c2cc1C` ?
92 % of control

What do you have for `CCCCC(=O)NS(=O)(=O)c1ccccc1` ?
94 % of control

What do you have for `NC(=O)c1nc2c([nH]c1=O)CCCC2` ?
93 % of control

What do you have for CNS(=O)(=O)CCC(N)C(=O)O (configuration not stated) ?
97 % of control

What do you have for `CCN(CC)Cc1cc(Nc2cc(C)nc(/N=C(\N)Nc3cc(Cl)cc(Cl)c3)n2)ccc1O` ?
98 % of control

###

Overview of reported T/C across a group of compounds:
# Tested on: L1210 leukemia ip in BDF1 mice, survival T/C
# test: NCI In Vivo Anticancer Drug Screen. Data for tumor model L1210 Leukemia (intraperitoneal) in B6D2F1 (BDF1) mice
# assaySetup: endpoint: mean survival time; dose: 12.5 mg/kg/injection; schedule: Q01DX009 (ip); vehicle: saline; higher = longer survival
Toxic doses and inconclusive results are not listed.

Reference set (6 entries):
| compound | T/C |
| --- | --- |
| c1ccc(C2=C([P+](c3ccccc3)(c3ccccc3)c3ccccc3)CCO2)cc1 | 92 % of control |
| CC(C)=CCNC1=NCCN1 | 91 % of control |
| COc1ccc2c(c1)c(C)cc[n+]2C | 109 % of control |
| Cc1ccc(C(SCC(N)C(=O)O)(c2ccccc2)c2ccccc2)cc1 (configuration not stated) | 159 % of control |
| NC(=S)/C(N)=N/Nc1ccc(Cl)cc1 | 108 % of control |
| Nc1ncnc2c1c(-c1nn[nH]n1)cn2C1OC(CO)C(O)C1O (configuration not stated) | 122 % of control |

// moving on: another record for T/C
Lab request: please report T/C under test system L1210 leukemia ip in BDF1 mice, survival T/C for COC(=O)C1=COC(C)C(C=O)C1CC(=O)O (configuration not stated)
108 % of control

###

Overview of reported T/C across a group of compounds:
# Tested on: L1210 leukemia ip in BDF1 mice, survival T/C
# test: NCI In Vivo Anticancer Drug Screen. Data for tumor model L1210 Leukemia (intraperitoneal) in B6D2F1 (BDF1) mice
# assaySetup: endpoint: mean survival time; dose: 100.0 mg/kg/injection; schedule: Q01DX009 (ip); vehicle: Klucel (hydroxypropylcellulose) (HPC); higher = longer survival
Toxic doses and inconclusive results are not listed.

Reference set (5 entries):
| testSmiles | testSystem | T/C |
| --- | --- | --- |
| CC(C)OC(=O)Nc1ccc(-c2ccc(NC(=O)OC(C)C)cc2)cc1 | L1210 leukemia ip in BDF1 mice, survival T/C | 95 % of control |
| CCOC(=O)C(=O)Nc1onc(C)c1[N+](=O)[O-] | L1210 leukemia ip in BDF1 mice, survival T/C | 93 % of control |
| COc1cc(NS(=O)(=O)c2ccc(C(C)=O)cc2)nc(OC)n1 | L1210 leukemia ip in BDF1 mice, survival T/C | 94 % of control |
| O=C(Nc1ccc(Cl)cc1)Oc1c(Cl)cc(S(=O)(=O)F)cc1Cl | L1210 leukemia ip in BDF1 mice, survival T/C | 97 % of control |
| Cc1c(N=O)c(=O)n(-c2ccccc2)n1C | L1210 leukemia ip in BDF1 mice, survival T/C | 94 % of control |

// moving on: another record for T/C
Using the record for `N#C/C(=C\c1ccc(Cl)cc1)c1cccc2ccccc12` , report its T/C.
92 % of control

###

# Test system: L1210 leukemia ip in BDF1 mice, survival T/C
# test: NCI In Vivo Anticancer Drug Screen. Data for tumor model L1210 Leukemia (intraperitoneal) in B6D2F1 (BDF1) mice
# assaySetup: endpoint: mean survival time; dose: 50.0 mg/kg/injection; schedule: Q01DX009 (ip); vehicle: saline with Tween-80; higher = longer survival
# Method: The antitumor activity of compounds was measured in mice bearing transplantable tumors. Survival or tumor size were measured and the results are expressed as the measurement made in the treated group (T) divided by the measurement made in the vehicle treated control group (C). The tumor model used in this assay is L1210 Leukemia (intraperitoneal) in B6D2F1 (BDF1) mice
Toxic doses and inconclusive results are not listed.
readout: T/C

Reference set (5 entries):
| molecule | testSystem | T/C |
| --- | --- | --- |
| COc1cccc(CCCCO)c1 | L1210 leukemia ip in BDF1 mice, survival T/C | 91 % of control |
| CC(C)(C)c1cccc(Cl)c1O | L1210 leukemia ip in BDF1 mice, survival T/C | 93 % of control |
| C(#CCN1CCCC1)CCCN1CCCC1 | L1210 leukemia ip in BDF1 mice, survival T/C | 102 % of control |
| S=c1nc(COc2ccccc2Cl)[nH][nH]1 | L1210 leukemia ip in BDF1 mice, survival T/C | 106 % of control |
| Clc1nc2nsnc2nc1Cl | L1210 leukemia ip in BDF1 mice, survival T/C | 110 % of control |

Using the record for `CCO/C=C1\SC(=S)N(c2ccc(C(=O)O)cc2)C1=O` , report its T/C.
100 % of control

What do you have for `CCOCCC(=O)CC(=O)OC` ?
96 % of control

What do you have for `COC(=O)c1ccccc1NC(=S)NC(=O)c1ccccc1F` ?
92 % of control

What do you have for `CCCOCCC(c1ccccc1)(c1ccccc1)c1ccccc1` ?
95 % of control

What do you have for CC(O)C(c1ccccc1)c1ccccc1 (centres undefined) ?
94 % of control

What do you have for `CCc1oc(=O)c2ccccc2c1-c1ccccc1` ?
93 % of control

What do you have for `COc1cc(/C=N\NC(=O)CC#N)cc(OC)c1OC` ?
87 % of control

What do you have for `COc1ccc(/C=N\NC(=O)c2ccc(Cl)c(Cl)c2)cc1OC` ?
117 % of control

What do you have for `O=C(NO)c1cc(Br)cc(Br)c1O` ?
102 % of control

###

Overview of reported T/C across a group of compounds:
# Tested on: L1210 leukemia ip in BDF1 mice, survival T/C
# test: NCI In Vivo Anticancer Drug Screen. Data for tumor model L1210 Leukemia (intraperitoneal) in B6D2F1 (BDF1) mice
# assaySetup: endpoint: mean survival time; dose: 400.0 mg/kg/injection; schedule: Q01DX001 (ip); vehicle: other; higher = longer survival
Inconclusive results and toxic doses are left out.

| compound | testSystem | readout | valueObserved |
| --- | --- | --- | --- |
| Cc1cc(CO)c(O)c(CO)c1 | L1210 leukemia ip in BDF1 mice, survival T/C | T/C | 103 % of control |
| O=C(NC(=O)C(C(=O)c1ccccc1)c1ccccc1)c1ccccc1 (stereo not drawn) | L1210 leukemia ip in BDF1 mice, survival T/C | T/C | 91 % of control |
| CCCCC#CC(O)(C(=O)OC)c1ccccc1 (stereo not drawn) | L1210 leukemia ip in BDF1 mice, survival T/C | T/C | 94 % of control |
| Brc1cccc2nc(/C=C\c3ccccc3)ccc12 | L1210 leukemia ip in BDF1 mice, survival T/C | T/C | 89 % of control |
| N/N=C/c1ccccc1[N+](=O)[O-] | L1210 leukemia ip in BDF1 mice, survival T/C | T/C | 111 % of control |
| Cc1nc2cnc(N)nc2nc1C | L1210 leukemia ip in BDF1 mice, survival T/C | T/C | 98 % of control |
| O=C1CCCCC1O (stereo not drawn) | L1210 leukemia ip in BDF1 mice, survival T/C | T/C | 95 % of control |

// moving on: another record for T/C
Lab request: please report T/C under test system L1210 leukemia ip in BDF1 mice, survival T/C for `CCOC(=O)CN=NNc1[nH]ncc1C(N)=O`
105 % of control

###

# Tested on: L1210 leukemia ip in BDF1 mice, survival T/C
# test: NCI In Vivo Anticancer Drug Screen. Data for tumor model L1210 Leukemia (intraperitoneal) in B6D2F1 (BDF1) mice
# assaySetup: endpoint: mean survival time; dose: 100.0 mg/kg/injection; schedule: Q04DX002 (ip); vehicle: saline with Tween-80; higher = longer survival
Toxic doses and inconclusive results are not listed.
readout: T/C

Reference set (10 entries):
| compound | T/C |
| --- | --- |
| COC(=O)c1ccccc1N=NNc1ccccc1C(=O)OC | 92 % of control |
| Cc1ccc(Nc2cc(Br)c(N)c3c2C(=O)c2ccccc2C3=O)cc1 | 92 % of control |
| Cc1cccc(C2=N/C(=C\c3ccccc3)C(=O)O2)c1 | 95 % of control |
| CC(C)(C)[Si](C)(C)OC1CCP(C)(=S)CC1 (stereo not given) | 98 % of control |
| O=C1CSC(=S)N1c1ccc(N2C(=O)CSC2=S)cc1 | 90 % of control |
| CCCCP(=O)(CC(=O)O)c1ccccc1 (stereo not given) | 97 % of control |
| CCC1(c2ccccc2)C(=O)N(C)C(=O)N(CBr)C1=O (stereo not given) | 92 % of control |
| O=C(O)C(O)c1ccc([N+](=O)[O-])cc1 (stereo not given) | 95 % of control |
| C=C(CCCCCCCCCCCCCCCC)C(=O)O | 91 % of control |
| O=C(O)c1cc([N+](=O)[O-])cc([N+](=O)[O-])c1O | 113 % of control |

Using the record for `Cc1ccc(C)c(NC(=O)Oc2ccc(Cl)cc2C)c1` , report its T/C.
92 % of control

What do you have for `CCOC(=O)c1nc2c(OC)nn(O)cc-2c1Br` ?
96 % of control

What do you have for CC(=O)NC(CO)C(O)c1ccc([N+](=O)[O-])cc1 (stereo not given) ?
87 % of control
